Hello, the source for this data is PubChem BioAssay, in case you need it.

RUN DESCRIPTION: inhibitors of TNFa-induced NFkB p65 translocation, primary screen, imaging, HUVEC, MLSMR starter and 10KST1 sets (AID 438);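 also: compound added about 3h40 before a 20 min TNFalpha stimulation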
EXPERIMENTAL PARAMETERS: HUVEC TNFa-induced p65 nuclear translocation; measured here: nuclei count (cytotoxicity indicator), at 2.08 µM
Catalogue of cell count values

CC(=O)c1ccc(NC(=O)CSc2nnc(-c3ccoc3C)n2Cc2ccccc2)cc1
366

Need cell count of CCC(C)NC(=O)CS(=O)(=O)Cc1nc(-c2cccc(OC)c2)oc1C (centres undefined) , thanks.
638

Need cell count of O=C(OCC(=O)c1cccs1)C1=COCCO1 , thanks.
656

Need cell count of CCCCCCNC(=O)c1c(N)n(/N=C/c2ccco2)c2nc3ccccc3nc12 , thanks.
602

Need cell count of Cc1cc(=O)[nH]c(S/C=C/c2ccccc2)n1 , thanks.
427

Need cell count of Cc1cc(NC(=O)CCC(=O)N(CCc2ccccc2)C(C(=O)NC2CCCC2)c2ccco2)no1 (centres undefined) , thanks.
592

Need cell count of COC(=O)Nc1ccc(S(=O)(=O)N2CCCCCC2)cc1 , thanks.
336

Need cell count of Cc1cc(NC(=O)Cn2cnc3c(cnn3C(C)(C)C)c2=O)no1 , thanks.
645

Need cell count of CCn1c(SCc2nc(-c3cccs3)no2)nnc1-c1c[nH]c2ccccc12 , thanks.
296

Need cell count of Cc1ccc(OC(=O)CCC(=O)OCCCC(F)(F)C(F)(F)F)cc1 , thanks.
403
